Hey, just so you know, these numbers are from BindingDB's records for doi:10.7270/Q25B013C.

Biological target: Disintegrin and metalloproteinase domain-containing protein 10 (Homo sapiens, UniProt O14672)
Sequence (O14672 whole entry, the tested form may be a part): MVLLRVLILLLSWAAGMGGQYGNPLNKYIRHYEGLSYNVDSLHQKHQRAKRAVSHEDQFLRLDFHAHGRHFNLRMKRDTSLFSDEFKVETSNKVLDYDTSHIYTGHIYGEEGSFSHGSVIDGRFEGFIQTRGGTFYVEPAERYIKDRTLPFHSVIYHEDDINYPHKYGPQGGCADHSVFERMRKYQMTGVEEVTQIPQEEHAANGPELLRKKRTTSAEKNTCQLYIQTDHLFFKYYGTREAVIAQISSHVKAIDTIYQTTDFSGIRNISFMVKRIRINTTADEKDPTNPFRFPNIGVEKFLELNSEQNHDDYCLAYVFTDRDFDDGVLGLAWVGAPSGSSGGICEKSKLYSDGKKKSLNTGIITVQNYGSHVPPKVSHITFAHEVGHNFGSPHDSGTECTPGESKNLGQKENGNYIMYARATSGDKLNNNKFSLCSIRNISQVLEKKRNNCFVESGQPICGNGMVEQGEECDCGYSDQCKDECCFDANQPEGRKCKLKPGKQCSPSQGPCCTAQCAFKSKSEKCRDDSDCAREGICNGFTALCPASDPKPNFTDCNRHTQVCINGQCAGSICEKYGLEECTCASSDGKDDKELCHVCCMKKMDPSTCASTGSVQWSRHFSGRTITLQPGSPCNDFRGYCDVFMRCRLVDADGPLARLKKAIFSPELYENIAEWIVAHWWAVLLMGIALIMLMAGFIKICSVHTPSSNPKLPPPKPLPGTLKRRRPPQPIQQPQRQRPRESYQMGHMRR
Experiment: inhibition of ADAM10 peptide cleavage – biochemical, FRET peptide substrate, recombinant human ADAM10, selectivity assay for ADAM17 exosite inhibitor project, dose response (AID 743259)
measure: IC50 (µM)

[P] CCOc1ccc(NC(=O)Cc2sc(=O)n(-c3ccccc3)c2O)cc1
[Q] CCOc1cc(C(c2c(C)[nH][nH]c2=O)c2c(C)[nH][nH]c2=O)ccc1O
Q. In terms of reported IC50, does P or Q have the smaller number? Choose, then provide that item's label.
A. Q

[P] CC(=NNC(=N)Sc1cc(O)n(-c2ccc(Br)cc2)c1O)c1cccs1
[Q] COC(=O)c1cccc(Cn2c(Cl)c(CN=Nc3ccccc3C)sc2=O)c1
Q. Recorded IC50 values differ for P and Q ; which one is higher? Choose, then provide that item's label.
A. Q
(Q: 69.5 µM, P: 32.5 µM)

[1] O=C(Cc1sc(=O)n(-c2ccccc2)c1O)Nc1ccccc1
[2] Cn1c(-c2sccc2OCc2ccc(Cl)cc2Cl)n[nH]c1=S
[3] CC1CCCN(CCCNC(=O)c2coc3nc4ccccc4nc23)C1 (configuration not stated) [MLS000046706]
[4] Cc1cccc(NNC2=c3cc(Br)ccc3=NC2=O)c1
Q. Sort the 4 compounds by IC50; largest first, smallest last. Write the labels out in the order the request specifies.
A. 4, 1, 3, 2
(4: 69.5 µM, 1: 47.8 µM, 3: 28.5 µM, 2: 11.1 µM)

[I] CC(=NNC(=N)Sc1cc(O)n(-c2ccccc2)c1O)c1cccs1
[II] COc1cccc(C2c3oc(CO)cc(=O)c3OC(=N)C2C#N)c1 (configuration not stated)
Q. In terms of reported IC50, does I or II have the smaller number? Choose, then provide that item's label.
A. I
